All values here come from PubChem BioAssay AID1159580.

- Assay: chemical genetic growth profiling, strain panel (AID 1159580);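 also: tested at 20 µM; growth read once vehicle control cultures reached saturation at 30 °C; lower values mean less growth of the strain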
- Details: S. cerevisiae deletion strains, growth OD, locus YOL012C, strain htz1
Among all 5,500 compounds or so, about 2,000 (36%) were called active. Another 18% or so got no clear call; they are omitted. The list shows a part of the results.
normalized growth under 1 gets Met, anything at or over 1 gets Not met.

Data request: Could you please tell me whether normalized growth recorded for `O=c1cc(-c2ccccc2)oc2cc(O)c(O)c(O)c12` is less than 1?
Data returned: Met

Data request: Do the same for CC1CCC2(OC1)OC1CC3C4CCC5C[C@@H](O)CCC5(C)C4=CCC3(C)C1[C@@H]2C (stereo partly drawn) please
Data returned: Met

Data request: Do the same for `Cc1nc2sccn2c(=O)c1CCN1CCC(=C(c2ccc(F)cc2)c2ccc(F)cc2)CC1` please
Data returned: Met

Data request: Do the same for `CCOC(=O)[C@H](CCc1ccccc1)N[C@@H](C)C(=O)N1Cc2ccccc2C[C@H]1C(=O)O` please
Data returned: Not met

Data request: Do the same for CC(CCC(=O)O)[C@H]1CCC2C3CC[C@@H]4C[C@H](O)CC[C@]4(C)C3C[C@H](O)[C@@]21C (stereo partly drawn) please
Data returned: Not met

Data request: Do the same for `N[C@@H](Cc1cc(I)c(Oc2ccc(O)c(I)c2)c(I)c1)C(=O)O` please
Data returned: Not met

Data request: Do the same for CC(CCC(=O)O)[C@H]1CCC2C3C(C[C@H](O)[C@@]21C)[C@@]1(C)CC[C@@H](O)C[C@H]1C[C@H]3O (stereo partly drawn) please
Data returned: Not met
